biological target: HIV-1 NefSF2 mutant (P76A, P79A, R81A), C210A (HIV-1 SF2); assay: ITC; Nef (40 to 50 µM) in the cell, inhibitor protein (400 to 500 µM) in the syringe; 10 mM Tris/HCl pH 8.0, 100 mM NaCl; 25 °C
observable: pKd
Keep in mind that pKd stands for -log10 of concentration in molar terms.

Recorded pKd for GST-NI3-9, Hck-SH3 (VSWSPD) - polyGly linker - CD4 cytoplasmic tail (from UniProt P08631-1;P01730) (designed binder) with HIV-1 NefSF2 mutant (P76A, P79A, R81A), C210A (HIV-1 SF2), please?
5.93

---

Give measured Kd for each item. Keep answers brief.
target: HIV-1 NefSF2 wild type, full length (1-210), C210A (HIV-1 SF2) (UniProt P03407); test: ITC
Kindly answer with a numeric value in nM, unit omitted.

What does the data say about its Kd? Entry: GST-NI3-4, CD4 cytoplasmic tail (dileucine LL to AA) fused to Hck-SH3 (VSWSPD) (from UniProt P01730 419-458; P08631-1 78-138) (designed binder)
544

Item: GST-NI3-8, CD4 cytoplasmic tail shortened to 23 residues fused N-terminally to Hck-SH3 (VSWSPD) (from UniProt P01730 419-458; P08631-1 78-138) (designed binder)
107

Item: GST-NI3-1, CD4 cytoplasmic tail (37 residues) - five residue linker - Hck-SH3 (VSWSPD) (from UniProt P01730 419-458; P08631-1 78-138) (designed binder)
84

---

molecular target: HIV-1 NefSF2 wild type, full length (1-210), C210A (HIV-1 SF2) (UniProt P03407); assay: ITC
Give measured dH for each item. Keep answers brief.
Kindly answer with a numeric value in kcal/mol, unit omitted.

Recorded dH for GST-NI3-10, Hck-SH3 (VSWSPD) - linker - CD4 cytoplasmic tail with the two cysteines mutated (from UniProt P08631-1 78-138; P01730 419-458) (designed binder) with HIV-1 NefSF2 wild type, full length (1-210), C210A (HIV-1 SF2) (UniProt P03407), please?
-11.5

Item: GST-NI3-8, CD4 cytoplasmic tail shortened to 23 residues fused N-terminally to Hck-SH3 (VSWSPD) (from UniProt P01730 419-458; P08631-1 78-138) (designed binder)
-8.2

Item: GST-NI3-1, CD4 cytoplasmic tail (37 residues) - five residue linker - Hck-SH3 (VSWSPD) (from UniProt P01730 419-458; P08631-1 78-138) (designed binder)
-8.51

---

molecular target: HIV-1 NefSF2 wild type, full length (1-210), C210A (HIV-1 SF2); assay: ITC
Think of 1 as a floor: if stoichiometry N stands on it or above, it is Satisfied; beneath it, Not satisfied.

Quick check, stoichiometry N >= 1? GST-NI3-5, wild type CD4 sequence attached with a glycine-serine-rich linker of 12 residues to Hck-SH3 (VSWSPD) (from UniProt P01730 419-458; P08631-1 78-138) (designed binder)
Satisfied

Item: GST-NI3-1, CD4 cytoplasmic tail (37 residues) - five residue linker - Hck-SH3 (VSWSPD) (from UniProt P01730 419-458; P08631-1 78-138) (designed binder)
Satisfied

Item: GST-NI3-10, Hck-SH3 (VSWSPD) - linker - CD4 cytoplasmic tail with the two cysteines mutated (from UniProt P08631-1 78-138; P01730 419-458) (designed binder)
Satisfied

Item: GST-NI3-3, CD4 cytoplasmic tail (CQC to SQS) fused to Hck-SH3 (VSWSPD) (from UniProt P01730 419-458; P08631-1 78-138) (designed binder)
Satisfied

Item: GST-NI3-4, CD4 cytoplasmic tail (dileucine LL to AA) fused to Hck-SH3 (VSWSPD) (from UniProt P01730 419-458; P08631-1 78-138) (designed binder)
Not satisfied

Item: GST-NI3-8, CD4 cytoplasmic tail shortened to 23 residues fused N-terminally to Hck-SH3 (VSWSPD) (from UniProt P01730 419-458; P08631-1 78-138) (designed binder)
Not satisfied

---

Give measured dH for each item. Keep answers brief.
biological target: HIV-1 NefSF2 wild type, full length (1-210), C210A (HIV-1 SF2); test: ITC
Kindly answer with a numeric value in kcal/mol, unit omitted.

What does the data say about its dH? Entry: GST-NI3-3, CD4 cytoplasmic tail (CQC to SQS) fused to Hck-SH3 (VSWSPD) (from UniProt P01730 419-458; P08631-1 78-138) (designed binder)
-8.64

Item: GST-NI3-5, wild type CD4 sequence attached with a glycine-serine-rich linker of 12 residues to Hck-SH3 (VSWSPD) (from UniProt P01730 419-458; P08631-1 78-138) (designed binder)
-8.22

Item: GST-NI3-13, Hck-SH3 (VSWSPD) - linker - CD4 cytoplasmic tail truncated before the cysteines (from UniProt P08631-1 79-138; P01730 419-458) (designed binder)
-7.04

Item: GST-NI3-4, CD4 cytoplasmic tail (dileucine LL to AA) fused to Hck-SH3 (VSWSPD) (from UniProt P01730 419-458; P08631-1 78-138) (designed binder)
-8.55

---

biological target: HIV-1 NefSF2 wild type, full length (1-210), C210A (HIV-1 SF2); test: ITC
observable: Kd
I'd appreciate it if you included the unit after the number.

What does the data say about its Kd? Entry: GST-NI3-3, CD4 cytoplasmic tail (CQC to SQS) fused to Hck-SH3 (VSWSPD) (from UniProt P01730 419-458; P08631-1 78-138) (designed binder)
88 nM

Item: GST-NI3-13, Hck-SH3 (VSWSPD) - linker - CD4 cytoplasmic tail truncated before the cysteines (from UniProt P08631-1 79-138; P01730 419-458) (designed binder)
41 nM

Item: GST-NI3-5, wild type CD4 sequence attached with a glycine-serine-rich linker of 12 residues to Hck-SH3 (VSWSPD) (from UniProt P01730 419-458; P08631-1 78-138) (designed binder)
64 nM

Item: GST-NI3-10, Hck-SH3 (VSWSPD) - linker - CD4 cytoplasmic tail with the two cysteines mutated (from UniProt P08631-1 78-138; P01730 419-458) (designed binder)
27 nM

---

target: HIV-1 NefSF2 wild type, full length (1-210), C210A (HIV-1 SF2) (UniProt P03407); test: ITC; Nef (40 to 50 µM) in the cell, GST-fused inhibitor protein (400 to 500 µM) in the syringe; 10 mM Tris/HCl pH 8.0, 100 mM NaCl; 15 °C
observable: pKd
Keep in mind that pKd stands for -log10 of concentration in molar terms.

What does the data say about its pKd? Entry: GST-NI3-9, Hck-SH3 (VSWSPD) - polyGly linker - CD4 cytoplasmic tail (from UniProt P08631-1;P01730) (designed binder)
7.59
